binding signal for assorted sequences
Target: HNF4alpha8 (COS-7 nuclear extract) (Homo sapiens, UniProt P41235-5 1-452)
Sequence: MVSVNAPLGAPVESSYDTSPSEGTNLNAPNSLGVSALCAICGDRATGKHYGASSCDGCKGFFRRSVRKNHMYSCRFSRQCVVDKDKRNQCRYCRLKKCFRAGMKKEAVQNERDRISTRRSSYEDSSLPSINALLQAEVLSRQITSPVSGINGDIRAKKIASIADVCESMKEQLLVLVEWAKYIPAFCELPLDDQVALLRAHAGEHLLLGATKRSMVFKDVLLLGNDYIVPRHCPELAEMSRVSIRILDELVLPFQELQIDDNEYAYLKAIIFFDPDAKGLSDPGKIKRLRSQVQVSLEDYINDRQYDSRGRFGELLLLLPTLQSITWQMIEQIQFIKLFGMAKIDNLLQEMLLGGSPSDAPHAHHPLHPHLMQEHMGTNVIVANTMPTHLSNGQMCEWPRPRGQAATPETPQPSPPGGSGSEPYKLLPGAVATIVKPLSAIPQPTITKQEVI
Assay: protein-binding microarray; COS-7 nuclear extract on double-stranded Agilent 4x180k PBM; binding buffer, salt, pH and temperature not given in the material; high values mean tight binding
Conditions: chain copies: 2; label: 3' end of strand 1 on the slide; dsDNA, one strand shown
In all, about 18,000 sequences were measured (“log2 normalized intensity”: median about 0.36, highest 2% from about 7.3 on). The sample holds the highest values, similar sequences and a random draw of the others, so the mix is not that of the screen.
ASSAY READOUT: binding signal (log2 normalized intensity)

- CTCCCCTCCTCCAGATGGGCTCATGTAACAGCCTAGGGAGATTAGAGTATCGGTCGA: 2.65
- AATCATGGGCCCACAGATGATCAAAGGTCAGCCTAGGGAGATTAGAGTATCGGTCGA: 7.91
- CTCTCCAAGCCAGAAAGATGTTTGCCCCAAGCCTAGGGAGATTAGAGTATCGGTCGA: 2.94
- GTGGGTGCCAAACAAAAAGGGCAAAGGTCAGCCTAGGGAGATTAGAGTATCGGTCGA: 8.84
- TGGGCCCACAGATGATCAAAGGTCAGTCTTGCCTAGGGAGATTAGAGTATCGGTCGA: 7.25
- GGGTAACTGACCTTGTTGCCCACCCCCCAAGCCTAGGGAGATTAGAGTATCGGTCGA: 5.8

###

Target: HNF4alpha8 (COS-7 nuclear extract) (Homo sapiens, UniProt P41235-5 1-452)
Sequence: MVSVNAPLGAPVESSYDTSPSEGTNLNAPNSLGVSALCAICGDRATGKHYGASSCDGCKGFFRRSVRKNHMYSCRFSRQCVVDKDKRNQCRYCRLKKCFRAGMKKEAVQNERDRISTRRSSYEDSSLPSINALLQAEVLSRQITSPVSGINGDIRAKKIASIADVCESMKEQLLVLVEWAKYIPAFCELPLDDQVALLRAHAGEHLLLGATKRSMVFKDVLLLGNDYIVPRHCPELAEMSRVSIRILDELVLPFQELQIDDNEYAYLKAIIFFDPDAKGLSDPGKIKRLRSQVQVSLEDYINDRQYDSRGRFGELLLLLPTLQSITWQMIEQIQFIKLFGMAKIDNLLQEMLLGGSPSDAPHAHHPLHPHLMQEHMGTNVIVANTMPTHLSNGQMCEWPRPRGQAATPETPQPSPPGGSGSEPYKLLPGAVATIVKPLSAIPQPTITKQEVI
Experiment: protein-binding microarray; COS-7 nuclear extract on double-stranded Agilent 4x180k PBM; binding buffer, salt, pH and temperature not given in the material; high values mean tight binding
Conditions: chain copies: 2; label: 3' end of strand 1 on the slide; dsDNA, one strand shown
Over roughly 18,000 sequences, “log2 normalized intensity” has its median near 0.36; the highest 2% begin near 7.3. The sample holds the highest values, similar sequences and a random draw of the others, so the mix is not that of the screen.
binding signal for assorted sequences
ASSAY READOUT: binding signal (log2 normalized intensity)

• TAGGTTTGTGAGTCCAAAGGTCAGCCGGGGGCCTAGGGAGATTAGAGTATCGGTCGA = 8.36
• CCTCAATGCTATCTCCCAGTTCTTTTGACCGCCTAGGGAGATTAGAGTATCGGTCGA = 2.7
• TGAACTATTGAACCACCAGATAGAGCTTTTGCCTAGGGAGATTAGAGTATCGGTCGA = 0.654
• GGCTCTCCCGGGGCGGGGGTGACCAGATTAGCCTAGGGAGATTAGAGTATCGGTCGA = 1.07
• AGGTCAGGGAGTAGGTTTGATTTGTGAAAGGCCTAGGGAGATTAGAGTATCGGTCGA = 1.03
• AAACCTCCCCCAAACCAAAGAGAAATGGTGGCCTAGGGAGATTAGAGTATCGGTCGA = 3.41
• CTTTGAGATTTGCATTCATGATCTTAGATAGCCTAGGGAGATTAGAGTATCGGTCGA = 0.242
• TCCTTTTGACCACAGTTATCTCCCCAGCTTGCCTAGGGAGATTAGAGTATCGGTCGA = 2.38
• ATGCTATCTCCCAGTTCTTTTGACCTTTGCGCCTAGGGAGATTAGAGTATCGGTCGA = 8.5
• CCTGAGGTGTGAGAGGGCAAAGGTCACAGCGCCTAGGGAGATTAGAGTATCGGTCGA = 8.73
• GATCAAGAGGAAGATCTTTTTGATGACTTTGCCTAGGGAGATTAGAGTATCGGTCGA = 0.895
